Form field: TGI (one value per entry).
- Tested on: T-47D breast
- testProtocol: NCI tumour cell line growth inhibition, 48 h

TGI in this record for `Cc1ccccc1Nc1nc2ccccc2nc1NS(=O)(=O)c1ccccc1` : > 100 µM

----------
- System: HOP-92 NSCLC
- testProtocol: NCI tumour cell line growth inhibition, 48 h
Listed compounds paired with reported TGI

Known results for compounds:
[[record]]
chemicalsmiles = "Cc1nc(-n2nc(-c3ccccc3)cc2-c2ccccc2)sc1C(=O)/C=C/c1ccccc1"
reportedmeasurement = "> 100 µM"

[[record]]
chemicalsmiles = "COc1cc(CCc2ccc(OC(C)=O)cc2)cc(OC)c1OC"
reportedmeasurement = "> 100 µM"

[[record]]
chemicalsmiles = "O=C(CC1=Nc2nnc(-c3nnc4n3C(=O)C(CC(=O)C3CC3)=N4)n2C1=O)C1CC1"
reportedmeasurement = "> 100 µM"


Now turn to the next compound.
Lab note: `C#CCOC(=O)C(=[N+]=[N-])C(=O)CC(C)C` gave TGI of > 10 µM
